The reported measurements were obtained from PubChem BioAssay (Tox21).

target or test system: Luciferin 4-monooxygenase (Photinus pyralis) (UniProt P08659)
Sequence (P08659 whole entry, looked up): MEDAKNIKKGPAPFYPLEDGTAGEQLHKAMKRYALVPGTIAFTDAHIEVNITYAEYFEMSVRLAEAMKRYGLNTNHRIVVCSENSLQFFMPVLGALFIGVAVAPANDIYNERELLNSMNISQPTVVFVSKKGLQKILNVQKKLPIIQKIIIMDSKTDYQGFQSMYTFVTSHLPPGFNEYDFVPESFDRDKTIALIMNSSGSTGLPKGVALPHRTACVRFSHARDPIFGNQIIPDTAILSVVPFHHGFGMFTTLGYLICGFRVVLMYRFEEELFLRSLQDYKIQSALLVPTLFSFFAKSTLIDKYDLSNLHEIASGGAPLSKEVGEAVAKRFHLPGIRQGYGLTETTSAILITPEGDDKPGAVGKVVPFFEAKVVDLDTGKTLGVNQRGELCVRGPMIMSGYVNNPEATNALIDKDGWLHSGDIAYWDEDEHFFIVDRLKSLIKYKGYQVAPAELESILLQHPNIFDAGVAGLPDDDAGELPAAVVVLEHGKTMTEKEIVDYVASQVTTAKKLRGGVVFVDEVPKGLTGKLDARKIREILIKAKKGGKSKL
protocol notes: qHTS assay to identify small molecule inhibitors of firefly luciferase (AID 1224835); further: nearly all actives have a fitted effect of over 25% in size
condition notes: purified P. pyralis luciferase, luminescence inhibition; series mostly up to 115 µM
Inconclusive results are not listed. Active and inactive are the calls of the source. The call rests on the fitted dose curve; in most records, active means well fitted inhibition curve with a large enough effect in the repeat runs; inconclusive means weak or mixed curves; inactive means flat fitted curve, though single readings scatter.
Outcomes: class 1 (active), class 0 (inactive)

INSERT INTO measurements (compound, answer_label) VALUES
  ('CC1=CC(O)CC(C)(C)C1 (stereo unspecified)', 'class 0'),
  ('ON(Cc1ccccc1)Cc1ccccc1', 'class 0'),
  ('O=[N+]([O-])c1cccc(S(=O)(=O)NCCNS(=O)(=O)c2cccc([N+](=O)[O-])c2)c1', 'class 0'),
  ('N#C[C@@H]1C[C@@H]2C[C@@H]2N1C(=O)[C@@H](N)C12CC3CC(CC(O)(C3)C1)C2', 'class 0'),
  ('Cc1cc2nc3ccc(=[N+](C)C)cc-3sc2cc1N', 'class 1'),
  ('CC(C)(C)CC(C)(C)c1ccc(OCCO)cc1', 'class 0'),
  ('Oc1cc(O)c(Cl)cc1Cl', 'class 0'),
  ('C[N+]1(C)CCC(=C(c2ccccc2)c2ccccc2)CC1', 'class 0'),
  ('CCCCN(CCCC)CCCOC(=O)c1ccc(N)cc1', 'class 0'),
  ('CC[C@@H]([C@H](C)O)n1ncn(-c2ccc(N3CCN(c4ccc(OC[C@@H]5CO[C@@](Cn6cncn6)(c6ccc(F)cc6F)C5)cc4)CC3)cc2)c1=O', 'class 0'),
  ('CCOC(=O)CC(=O)C(=O)OCC', 'class 0');

====

protocol notes: qHTS assay to identify aromatase inhibitors - cell viability counter screen (AID 743084);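 further: cells stimulated with testosterone during compound exposure; nearly all actives have a fitted effect of over 55% in size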
condition notes: MCF-7 aro ERE viability, CellTiter-Fluor, 24 h; series mostly up to 70.3 µM
Inconclusive results are not listed. The source made the active and inactive calls. Calls come from the whole dose curve; as a rule, active = well fitted cell-killing curve with a large enough effect in the repeat runs; inconclusive = weak or mixed curves, or effect the other way; inactive = no such curve, though single readings can be large or run the other way.
Outcomes: active, inactive

INSERT INTO measurements (compound, answer_label) VALUES
  ('CCOC(=O)C(C)Oc1ccc(Oc2nc3ccc(Cl)cc3o2)cc1 (stereo unspecified)', 'inactive'),
  ('CC(Cl)C(Cl)Cl (stereo unspecified)', 'inactive'),
  ('CC1=CC(=O)CC(C)(C)C1(O)/C=C/C(C)=C\C(=O)O (stereo unspecified)', 'inactive'),
  ('Nc1ccc(S(=O)(=O)O)c(N)c1', 'inactive'),
  ('CC(N)CN (stereo unspecified)', 'inactive'),
  ('CCOC(=O)OCC', 'inactive'),
  ('CC(CCc1ccc2c(c1)OCO2)NN (stereo unspecified)', 'inactive'),
  ('Cc1cc2nc3ccc(=[N+](C)C)cc-3sc2cc1N', 'active'),
  ('CC(=O)CC(c1ccc([N+](=O)[O-])cc1)c1c(O)c2ccccc2oc1=O (stereo unspecified)', 'inactive'),
  ('Nc1ccc(C(=O)OCCCOC(=O)c2ccc(N)cc2)cc1', 'inactive'),
  ('CO[C@H]1C=CO[C@@]2(C)Oc3c(C)c(O)c4c(O)c(c5c(c4c3C2=O)=NC2(CCN(CC(C)C)CC2)N=5)NC(=O)/C(C)=C\C=C/[C@H](C)[C@H](O)[C@@H](C)[C@@H](O)[C@@H](C)[C@H](OC(C)=O)[C@@H]1C', 'active'),
  ('O=C(Nc1ccccc1)Nc1ccccc1', 'inactive'),
  ('CCOC(=O)/C=C/C(=O)O', 'inactive'),
  ('CC(C)(CCl)c1ccccc1', 'inactive'),
  ('CC1CN(c2cc3c(cc2F)c(=O)c(C(=O)O)cn3-c2ccc(F)cc2F)CCN1 (stereo unspecified)', 'inactive'),
  ('CCC1(C)CC(=O)NC1=O (stereo unspecified)', 'inactive'),
  ('N#C/C(=C1\SCC(c2ccccc2Cl)S1)n1ccnc1 (stereo unspecified)', 'inactive'),
  ('CCCCCCCCCCCC[N+](C)(C)CC(=O)[O-]', 'inactive'),
  ('CCCCCCCCSCCO', 'inactive'),
  ('COCC(O)CO (stereo unspecified)', 'inactive'),
  ('CC(C)=CC=O', 'inactive'),
  ('CCN(CC)CCNC(=O)c1ccc(NC(C)=O)cc1', 'inactive'),
  ('CCCCC(=O)O[C@]1(C(=O)CO)CC[C@H]2[C@@H]3CCC4=CC(=O)CC[C@]4(C)[C@H]3[C@@H](O)C[C@@]21C', 'inactive'),
  ('O=C(Nc1ccc([N+](=O)[O-])cc1)Nc1ccc([N+](=O)[O-])cc1', 'inactive'),
  ('CC1(C)C(=O)N(Br)C(=O)N1Cl', 'inactive'),
  ('C=CC(=O)NCOCC(C)C', 'inactive');

====

target or test system: Progesterone receptor (Homo sapiens)
protocol notes: qHTS assay to identify small molecule agonists of the progesterone receptor (PR) signaling pathway (AID 1346784); further: on the % scale 0 is the no-effect control and ±100 the full control effect; nearly all actives have a fitted effect of over 30% in size
condition notes: PR-UAS-bla HEK293T, beta-lactamase FRET ratio, 16 h; series mostly up to 92.4 µM
Results filed as inconclusive are left out. Active and inactive are the calls of the source. Calls follow the shape of the full dose curve.
property name: outcome

INSERT INTO measurements (molecule, target_or_test_system, property_name, result_value) VALUES
  ('CNCCCC1c2ccccc2C=Cc2ccccc21', 'Progesterone receptor (Homo sapiens)', 'outcome', 'inactive'),
  ('NCC1CCCC(CN)C1 (configuration not stated)', 'Progesterone receptor (Homo sapiens)', 'outcome', 'inactive'),
  ('Nc1ccc(S(=O)(=O)O)cc1', 'Progesterone receptor (Homo sapiens)', 'outcome', 'inactive'),
  ('C=CCOC(=O)/C=C\C(=O)OCC=C', 'Progesterone receptor (Homo sapiens)', 'outcome', 'inactive'),
  ('O=C1NCCN1', 'Progesterone receptor (Homo sapiens)', 'outcome', 'inactive'),
  ('COc1cc2c(N3CCN(C(=O)Nc4ccc(OC(C)C)cc4)CC3)ncnc2cc1OCCCN1CCCCC1', 'Progesterone receptor (Homo sapiens)', 'outcome', 'inactive'),
  ('NC(=O)Nc1ccc(Cl)cc1', 'Progesterone receptor (Homo sapiens)', 'outcome', 'inactive');

====

target or test system: Estrogen receptor (Homo sapiens) (UniProt P03372)
Sequence (P03372 whole entry, looked up): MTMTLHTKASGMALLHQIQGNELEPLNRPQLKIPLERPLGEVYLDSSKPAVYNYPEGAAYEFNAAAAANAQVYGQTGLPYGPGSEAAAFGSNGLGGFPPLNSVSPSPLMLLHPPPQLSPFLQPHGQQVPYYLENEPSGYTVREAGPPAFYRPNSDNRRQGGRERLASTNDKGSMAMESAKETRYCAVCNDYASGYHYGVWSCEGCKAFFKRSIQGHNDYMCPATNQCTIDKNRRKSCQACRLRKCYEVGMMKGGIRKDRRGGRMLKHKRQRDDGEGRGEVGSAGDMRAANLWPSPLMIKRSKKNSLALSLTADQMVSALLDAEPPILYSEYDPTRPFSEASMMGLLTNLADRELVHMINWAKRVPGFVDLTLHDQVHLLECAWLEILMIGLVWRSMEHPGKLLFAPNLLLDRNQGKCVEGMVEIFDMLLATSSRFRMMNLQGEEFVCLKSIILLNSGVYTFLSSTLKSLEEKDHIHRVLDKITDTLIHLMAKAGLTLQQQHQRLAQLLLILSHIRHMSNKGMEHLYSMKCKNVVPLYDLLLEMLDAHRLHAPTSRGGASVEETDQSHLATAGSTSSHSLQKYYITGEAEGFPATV
protocol notes: qHTS assay to identify small molecule antagonists of the estrogen receptor alpha (ER-alpha) signaling pathway (AID 743069); further: on the % scale 0 is the no-effect control and ±100 the full control effect
condition notes: HEK293 ER-alpha-UAS-bla, beta-lactamase ratio, antagonist mode; series mostly up to 69.4 µM
Results filed as inconclusive are left out. The source made the active and inactive calls. Calls come from the whole dose curve; as a rule, active = well fitted curve in the direction sought with a large enough effect in the signal ratio in the repeat runs (not every such curve was filed as active); inconclusive = weak or mixed curves, or effect the other way; inactive = no such curve, though single readings can be large or run the other way; the % refers to the signal ratio.
property name: outcome

INSERT INTO assay_data (molecule, result_value) VALUES
  ('CN(C)CCOC1=Cc2ccccc2Sc2ccc(Cl)cc21', 'inactive'),
  ('CC(=O)OCC(=O)[C@H]1CC[C@H]2[C@@H]3CCC4=CC(=O)CC[C@]4(C)[C@H]3CC[C@]12C', 'inactive'),
  ('CCOc1cc(N)c(Cl)cc1C(=O)NCC1CN(Cc2ccc(F)cc2)CCO1 (configuration not stated)', 'inactive'),
  ('CCOC(=O)OCC', 'inactive'),
  ('COc1cc2c(N3CCN(C(=O)Nc4ccc(OC(C)C)cc4)CC3)ncnc2cc1OCCCN1CCCCC1', 'inactive'),
  ('CC(C)(C)C(=O)C(Oc1ccc(Cl)cc1)n1ccnc1 (configuration not stated)', 'inactive'),
  ('CCCCCCCCCCCCCCCCBr', 'inactive'),
  ('COc1ccc(CCC(=O)c2c(O)cc(O[C@@H]3O[C@H](CO)[C@@H](O)[C@H](O)[C@H]3O[C@@H]3O[C@@H](C)[C@H](O)[C@@H](O)[C@H]3O)cc2O)cc1O', 'inactive'),
  ('Cc1cc(O)c(C(C)C)cc1Cl', 'inactive'),
  ('NC(=O)Nc1ccc(Cl)cc1', 'inactive'),
  ('CCOC(=O)CC(=O)C(=O)OCC', 'inactive'),
  ('COc1ccc(C(=O)c2cccc(O)c2)c(OC)c1', 'inactive'),
  ('C=CCOC(=O)/C=C\C(=O)OCC=C', 'inactive'),
  ('CCn1cc(C(=O)O)c(=O)c2cc(F)c(N3CCNCC3)nc21', 'inactive'),
  ('O=C(O)C(Cc1cc(I)c(O)c(I)c1)c1ccccc1 (configuration not stated)', 'inactive'),
  ('CO[C@H]1C=CO[C@@]2(C)Oc3c(C)c(O)c4c(O)c(c5c(c4c3C2=O)=NC2(CCN(CC(C)C)CC2)N=5)NC(=O)/C(C)=C\C=C/[C@H](C)[C@H](O)[C@@H](C)[C@@H](O)[C@@H](C)[C@H](OC(C)=O)[C@@H]1C', 'inactive'),
  ('OC(CCCN1CCCCC1)(c1ccccc1)c1ccccc1', 'inactive'),
  ('CN1CCN(c2c(F)cc3c(=O)c(C(=O)O)cn4c3c2OCN4C)CC1', 'inactive'),
  ('CC(CCO)CCc1ccccc1 (configuration not stated)', 'inactive'),
  ('CCCCCCCCCCOS(=O)(=O)O', 'inactive'),
  ('NC(=O)N(O)[C@@H]1C=C[C@H](Oc2cccc(Oc3ccc(F)cc3)c2)C1', 'inactive'),
  ('O=C(CCC1CCN(Cc2ccccc2)CC1)c1ccc2c(c1)NCCCC2', 'inactive');
